experimental_system: HLA-B*07:02
assay_text: IEDB peptide-MHC binding, purified MHC/direct/fluorescence; filed as Kd, often an IC50 or EC50 that approximates it; bounds were set here for any values at or beyond the usual limits of such assays
test_settings: source organism: Influenza A virus (A/swine/Korea/S190/2004(H9N2))
reported_metric: Kd (nM)

residue_codes | reported_metric | unit_info | assay_value
WIPKRNRSI | Kd | nM | 644

---

experimental_system: HLA-B*40:01
assay_text: IEDB peptide-MHC binding, purified MHC/direct/fluorescence; filed as Kd, often an IC50 or EC50 that approximates it; bounds were set here for any values at or beyond the usual limits of such assays
test_settings: source organism: Camelpox virus M-96
pKd: −log10 of the molar value.

residue_codes | pKd
ETIEILRNY | ≤ 4.70

---

experimental_system: HLA-B*07:02
assay_text: IEDB peptide-MHC binding, purified MHC/direct/fluorescence; filed as Kd, often an IC50 or EC50 that approximates it; bounds were set here for any values at or beyond the usual limits of such assays
test_settings: source organism: Influenza A virus (A/swine/Hong Kong/5190/99(H3N2))

residue_codes | Kd
GYMFESKSM | ≥ 20 µM

---

experimental_system: HLA-B*39:01
assay_text: IEDB peptide-MHC binding, purified MHC/competitive/fluorescence; filed as Kd, often an IC50 or EC50 that approximates it; bounds were set here for any values at or beyond the usual limits of such assays
test_settings: source organism: Burkholderia pseudomallei 668
pKd: −log10 of the molar value.
reported_metric: pKd

residue_codes | assay_value
ILFDRLPIA | ≤ 4.70

---

experimental_system: HLA-B*57:01
assay_text: IEDB peptide-MHC binding, purified MHC/competitive/fluorescence; filed as Kd, often an IC50 or EC50 that approximates it; bounds were set here for any values at or beyond the usual limits of such assays
test_settings: source organism: Variola virus

residue_codes | Kd [nM]
ETIEILRNY | 926

---

experimental_system: HLA-B*40:01
assay_text: IEDB peptide-MHC binding, purified MHC/direct/fluorescence; filed as Kd, often an IC50 or EC50 that approximates it; bounds were set here for any values at or beyond the usual limits of such assays
test_settings: source organism: Rickettsia prowazekii
reported_metric: Kd (µM)

residue_codes | reported_metric | assay_value
KIFEYGFTF | Kd | 4.35

---

experimental_system: HLA-C*12:03
assay_text: IEDB peptide-MHC binding, purified MHC/direct/fluorescence; filed as Kd, often an IC50 or EC50 that approximates it; bounds were set here for any values at or beyond the usual limits of such assays
test_settings: source organism: Zaire ebolavirus
pKd: −log10 of the molar value.

residue_codes | pKd
IMYDHLPGF | 6.51

---

experimental_system: HLA-A*26:01
assay_text: IEDB peptide-MHC binding, purified MHC/direct/fluorescence; filed as Kd, often an IC50 or EC50 that approximates it; bounds were set here for any values at or beyond the usual limits of such assays
test_settings: source organism: Entamoeba histolytica HM-1:IMSS

residue_codes | Kd
DSFAKQPQW | ≥ 20 µM

---

experimental_system: HLA-B*40:01
assay_text: IEDB peptide-MHC binding, purified MHC/direct/fluorescence; filed as Kd, often an IC50 or EC50 that approximates it; bounds were set here for any values at or beyond the usual limits of such assays
test_settings: source organism: West Nile virus
pKd: −log10 of the molar value.
# pKd annotations
reported_metric: pKd

residue_codes | reported_metric | assay_value
YCPGTTVTL | pKd | ≤ 4.70
KIRNRIERL | pKd | ≤ 4.70

Sourced from the Immune Epitope Database (IEDB)
